// values below are reported Response
target: ROR1 (antigen of the KD determination and of the Octet dissociation measurement) (UniProt Q01973 30-403, limits assumed); test: Octet, antigen form not stated
Sequence (Q01973 30-403 limits assumed): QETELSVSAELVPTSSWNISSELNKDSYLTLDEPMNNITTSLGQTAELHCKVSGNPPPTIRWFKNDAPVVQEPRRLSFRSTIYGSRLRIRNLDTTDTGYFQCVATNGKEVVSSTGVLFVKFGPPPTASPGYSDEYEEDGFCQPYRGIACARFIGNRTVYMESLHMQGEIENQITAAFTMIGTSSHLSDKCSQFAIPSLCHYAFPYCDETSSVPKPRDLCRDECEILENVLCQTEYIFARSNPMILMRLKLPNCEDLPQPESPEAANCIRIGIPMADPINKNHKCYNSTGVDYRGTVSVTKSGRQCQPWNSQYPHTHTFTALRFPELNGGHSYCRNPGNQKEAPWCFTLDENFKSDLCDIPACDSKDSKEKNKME

binder	Response
PR002579 (antibody, human IgG1, kappa, V domains shown, PR001364 variant: VH G55A, VL S93A; hIgG1; also called anti-ROR1 1015M3-D8(H: G55A; L: S93A) hIgG1) VH: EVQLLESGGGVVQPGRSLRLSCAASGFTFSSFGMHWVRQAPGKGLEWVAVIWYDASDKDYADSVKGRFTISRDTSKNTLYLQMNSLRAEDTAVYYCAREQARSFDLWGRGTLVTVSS VL: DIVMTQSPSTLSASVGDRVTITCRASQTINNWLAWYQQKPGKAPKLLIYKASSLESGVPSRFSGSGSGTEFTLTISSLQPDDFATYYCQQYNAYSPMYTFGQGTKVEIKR	0.783
PR002565 (antibody, human IgG1, kappa, V domains shown, PR001354 variant: VH D54E, VL N92Q; hIgG1; also called anti-ROR1 1015M2-C9(H: D54E; L: N92Q) hIgG1) VH: QVQLVQSGGGVVQPGRSLRLSCAASGFTFSSYGMHWVRQAPGKGLEWVAIMWYEGSDKDYADSVKGRFTISRDTSKNTLYLQMNSLRAEDTAVYYCAREQARSFDLWGRGTLVTVSS VL: DIVMTQSPSSLSASVGDRVTITCRASQTINNWLAWYQQKPGKAPKLLIYKASSLESGVPSRFSGSGSGTEFTLTISSLQPDDFATYYCQQYQSYSPMYTFGQGTKVEIKR	0.595

Ask: Param item = PR002584 (antibody, human IgG1, kappa, V domains shown, PR001369 variant: VH D54E, VL S93A; hIgG1; also called anti-ROR1 1015M3-H10(H: D54E; L: S93A) hIgG1) VH: QVQLVESGGGVVQPGRSLRLSCAASGFTFSNYGIHWVRQAPGKGLEWVAIMWYEGSNTDYADSVKGRFTISRDTSKNTLFLQMNSLRAEDTAVYYCAREQARSFDLWGRGTLVTVSS VL: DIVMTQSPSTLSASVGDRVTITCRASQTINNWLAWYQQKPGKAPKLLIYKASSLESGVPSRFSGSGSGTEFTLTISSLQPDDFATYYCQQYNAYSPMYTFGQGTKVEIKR ; retrieve measured Response.
Result: 0.69
